Catalogue of compounds with associated remaining at 0.5 µM
Assay overview: Stability in rat liver microsomes assessed as parent compound remaining at 0.5 uM in presence of NADPH by MS/MS analysis
Format: ADME, Microsome
Recorded conditions: read-out: Stability
Write it as a number; the unit % goes unstated.

[[record]]
structure_as_smiles = "O=C(CN1CCS(=O)(=O)CC1)N1CC[C@@]2(S(=O)(=O)c3ccc(F)cc3)c3ccc(OCc4c(F)cccc4C(F)(F)F)cc3CC[C@@H]12"
recorded_endpoint = "remaining at 0.5 µM"
observed_value = 14

[[record]]
structure_as_smiles = "CS(=O)(=O)N[C@H]1CC[C@H](C(=O)N2CC[C@@]3(S(=O)(=O)c4ccc(F)cc4)c4ccc(OCc5c(F)cccc5C(F)(F)F)cc4CC[C@@H]23)CC1"
recorded_endpoint = "remaining at 0.5 µM"
observed_value = 30


Okay, now this compound:
Query: Request the reported remaining at 0.5 µM associated with `C[C@]1(C(=O)N2CC[C@@]3(S(=O)(=O)c4ccc(F)cc4)c4ccc(OCc5c(F)cccc5C(F)(F)F)cc4CC[C@@H]23)CC[C@H](C(=O)O)CC1`
Response: 48

---

Below: a set of entries, each annotated with reported remaining at 0.5 µM.
Assay overview: Stability in rat liver microsomes assessed as parent compound remaining at 0.5 uM in presence of NADPH by MS/MS analysis
Assay type: ADME, Microsome
Recorded conditions: read-out: Stability

[[record]]
structure_as_smiles = "O=C(N1CC[C@@]2(S(=O)(=O)c3ccc(F)cc3)c3ccc(OCc4c(F)cccc4C(F)(F)F)cc3CC[C@@H]12)C1(O)CCS(=O)(=O)CC1"
recorded_endpoint = "remaining at 0.5 µM"
observed_value = "4%"

[[record]]
structure_as_smiles = "NC(=O)[C@H]1CC[C@H](C(=O)N2CC[C@@]3(S(=O)(=O)c4ccc(F)cc4)c4ccc(OCc5c(F)cccc5C(F)(F)F)cc4CC[C@@H]23)CC1"
recorded_endpoint = "remaining at 0.5 µM"
observed_value = "39%"

[[record]]
structure_as_smiles = "O=C(C1CCS(=O)(=O)CC1)N1CC[C@@]2(S(=O)(=O)c3ccc(F)cc3)c3ccc(OCc4c(F)cccc4C(F)(F)F)cc3CC[C@@H]12"
recorded_endpoint = "remaining at 0.5 µM"
observed_value = "18%"

[[record]]
structure_as_smiles = "O=C([C@H]1CC[C@H](c2nnn[nH]2)CC1)N1CC[C@@]2(S(=O)(=O)c3ccc(F)cc3)c3ccc(OCc4c(F)cccc4C(F)(F)F)cc3CC[C@@H]12"
recorded_endpoint = "remaining at 0.5 µM"
observed_value = "67%"

[[record]]
structure_as_smiles = "O=C(O)[C@H]1CC[C@H](C(=O)N2CC[C@@]3(S(=O)(=O)c4ccc(F)cc4)c4ccc(OCc5c(F)cccc5C(F)(F)F)cc4CC[C@@H]23)CC1"
recorded_endpoint = "remaining at 0.5 µM"
observed_value = "65%"


Could you now look at the following molecule, please?
Query: Form field: reported remaining at 0.5 µM of `NC(=O)N1CCC(C(=O)N2CC[C@@]3(S(=O)(=O)c4ccc(F)cc4)c4ccc(OCc5c(F)cccc5C(F)(F)F)cc4CC[C@@H]23)CC1`
Response: 33%

---

We begin with a simple list: items and their reported Vd.
Assay overview: Volume of distribution at steady state in C57BL6 mouse at 2 mg/kg, iv qd administered as bolus dose after 24 hrs by LC-MS/MS analysis
Assay type: ADME, organism-based
Recorded conditions: in vivo, read-out: Vdss
Report only the number, with the unit L/kg understood.

[[record]]
structure_as_smiles = "C[C@]1(C(=O)N2CC[C@@]3(S(=O)(=O)c4ccc(F)cc4)c4ccc(OCc5c(F)cccc5C(F)(F)F)cc4CC[C@@H]23)CC[C@H](C(=O)O)CC1"
observed_value = 1.1


Now for the molecule whose Vd we want.
Query: Tell me the measured Vd of `O=C(O)[C@H]1CC[C@H](C(=O)N2CC[C@@]3(S(=O)(=O)c4ccc(F)cc4)c4ccc(OCc5c(F)cccc5C(F)(F)F)cc4CC[C@@H]23)CC1` , please.
Response: 1.8

---

Assay overview: Stability in human liver microsomes assessed as parent compound remaining at 0.5 uM in presence of NADPH by MS/MS analysis
Type: ADME, Microsome
Recorded conditions: read-out: Stability
Measured remaining at 0.5 µM values are reported for all entries that follow.
Give the value; after it, write the unit.

Sample records with remaining at 0.5 µM:
[[record]]
structure_as_smiles = "O=C(O)[C@H]1CC[C@H](C(=O)N2CC[C@@]3(S(=O)(=O)c4ccc(F)cc4)c4ccc(OCc5c(F)cccc5C(F)(F)F)cc4CC[C@@H]23)CC1"
observed_value = "97%"

[[record]]
structure_as_smiles = "NC(=O)N1CCC(C(=O)N2CC[C@@]3(S(=O)(=O)c4ccc(F)cc4)c4ccc(OCc5c(F)cccc5C(F)(F)F)cc4CC[C@@H]23)CC1"
observed_value = "3%"


Query: Any idea what its remaining at 0.5 µM is? The molecule is `O=C(C1CCS(=O)(=O)CC1)N1CC[C@@]2(S(=O)(=O)c3ccc(F)cc3)c3ccc(OCc4c(F)cccc4C(F)(F)F)cc3CC[C@@H]12`
Response: 1%

---

Assay overview: Tmax in C57BL6 mouse at 30 mg/kg, po qd via gavage after 24 hrs by LC-MS/MS analysis
Assay type: ADME, organism-based
Recorded conditions: in vivo
Item-by-item account of Tmax
# unit: min | format: bare number

[[record]]
structure_as_smiles = "O=C(O)[C@H]1CC[C@H](C(=O)N2CC[C@@]3(S(=O)(=O)c4ccc(F)cc4)c4ccc(OCc5c(F)cccc5C(F)(F)F)cc4CC[C@@H]23)CC1"
value_unit = "min"
observed_value = 60


Query: Which Tmax is reported for this compound? `C[C@]1(C(=O)N2CC[C@@]3(S(=O)(=O)c4ccc(F)cc4)c4ccc(OCc5c(F)cccc5C(F)(F)F)cc4CC[C@@H]23)CC[C@H](C(=O)O)CC1`
Response: 30

---

Assay system: Nuclear receptor ROR-gamma (Mus musculus)
Sequence (P51450 whole entry): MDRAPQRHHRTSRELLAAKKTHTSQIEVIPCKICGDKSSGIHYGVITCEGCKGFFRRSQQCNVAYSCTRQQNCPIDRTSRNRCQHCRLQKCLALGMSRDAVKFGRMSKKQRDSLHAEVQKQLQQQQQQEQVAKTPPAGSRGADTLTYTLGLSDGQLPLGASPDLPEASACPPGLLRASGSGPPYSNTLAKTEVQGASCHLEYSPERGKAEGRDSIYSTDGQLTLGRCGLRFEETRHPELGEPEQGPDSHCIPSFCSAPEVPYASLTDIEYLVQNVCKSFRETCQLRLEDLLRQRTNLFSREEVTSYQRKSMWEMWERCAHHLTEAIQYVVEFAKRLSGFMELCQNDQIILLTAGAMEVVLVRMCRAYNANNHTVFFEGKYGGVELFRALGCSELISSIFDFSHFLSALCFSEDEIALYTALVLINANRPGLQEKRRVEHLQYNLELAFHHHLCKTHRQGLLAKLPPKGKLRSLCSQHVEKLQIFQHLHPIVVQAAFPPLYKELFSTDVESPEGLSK
Assay overview: Agonist activity at RORgammat in mouse whole blood assessed as induction of IL-17A expression
Recorded endpoint: EC50 (nM)
Report the value in nM with no unit label.

Query: I would be grateful if you could share the reported EC50 for `C[C@]1(C(=O)N2CC[C@@]3(S(=O)(=O)c4ccc(F)cc4)c4ccc(OCc5c(F)cccc5C(F)(F)F)cc4CC[C@@H]23)CC[C@H](C(=O)O)CC1` .
Response: 380

---

Assay overview: Stability in mouse liver microsomes assessed as parent compound remaining at 0.5 uM in presence of NADPH by MS/MS analysis
Type: ADME, Microsome
Recorded conditions: read-out: Stability
Lab note: compare remaining at 0.5 µM with 50%, writing label 1 if less and label 0 if equal or more.

[[record]]
structure_as_smiles = "O=C(CN1CCS(=O)(=O)CC1)N1CC[C@@]2(S(=O)(=O)c3ccc(F)cc3)c3ccc(OCc4c(F)cccc4C(F)(F)F)cc3CC[C@@H]12"
label = "label 1"


Query: Determine whether this compound shows remaining at 0.5 µM lower than 50% (ties excluded): `O=C(O)[C@H]1CC[C@H](C(=O)N2CC[C@@]3(S(=O)(=O)c4ccc(F)cc4)c4ccc(OCc5c(F)cccc5C(F)(F)F)cc4CC[C@@H]23)CC1`
Response: label 0

Query: Strictly below 50%: is that where remaining at 0.5 µM of `CS(=O)(=O)N[C@H]1CC[C@H](C(=O)N2CC[C@@]3(S(=O)(=O)c4ccc(F)cc4)c4ccc(OCc5c(F)cccc5C(F)(F)F)cc4CC[C@@H]23)CC1` sits?
Response: label 1

Query: Identify whether the compound `O=C(C1CCS(=O)(=O)CC1)N1CC[C@@]2(S(=O)(=O)c3ccc(F)cc3)c3ccc(OCc4c(F)cccc4C(F)(F)F)cc3CC[C@@H]12` records remaining at 0.5 µM below 50%.
Response: label 0

---

Recorded Papp for the following compounds
Assay overview: Permeability of compound at pH 7.4
Assay type: ADME
Recorded conditions: not told, read-out: permeability
// return numeric value only (unit: ×10⁻⁶ cm/s, not printed)

Query: Look up Papp for this compound: `C[C@]1(C(=O)N2CC[C@@]3(S(=O)(=O)c4ccc(F)cc4)c4ccc(OCc5c(F)cccc5C(F)(F)F)cc4CC[C@@H]23)CC[C@H](C(=O)O)CC1`
Response: 40.6

Query: Recorded Papp for `O=C(O)[C@H]1CC[C@H](C(=O)N2CC[C@@]3(S(=O)(=O)c4ccc(F)cc4)c4ccc(OCc5c(F)cccc5C(F)(F)F)cc4CC[C@@H]23)CC1` , please?
Response: 10.1

---

Assay overview: Stability in mouse liver microsomes assessed as parent compound remaining at 0.5 uM in presence of NADPH by MS/MS analysis
Type: ADME, Microsome
Recorded conditions: read-out: Stability
Recorded endpoint: remaining at 0.5 µM
Please answer using a numeric value trailed by its unit.

Solved entries:
[[record]]
structure_as_smiles = "NC(=O)N1CCC(C(=O)N2CC[C@@]3(S(=O)(=O)c4ccc(F)cc4)c4ccc(OCc5c(F)cccc5C(F)(F)F)cc4CC[C@@H]23)CC1"
recorded_endpoint = "remaining at 0.5 µM"
observed_value = "57%"

[[record]]
structure_as_smiles = "O=C([C@H]1CC[C@H](c2nnn[nH]2)CC1)N1CC[C@@]2(S(=O)(=O)c3ccc(F)cc3)c3ccc(OCc4c(F)cccc4C(F)(F)F)cc3CC[C@@H]12"
recorded_endpoint = "remaining at 0.5 µM"
observed_value = "82%"


Query: State the recorded remaining at 0.5 µM for this entry: `C[C@]1(C(=O)N2CC[C@@]3(S(=O)(=O)c4ccc(F)cc4)c4ccc(OCc5c(F)cccc5C(F)(F)F)cc4CC[C@@H]23)CC[C@H](C(=O)O)CC1`
Response: 100%
